The origin of these recorded values is ChEMBL document CHEMBL1938237.

Assay: Inhibition of Na+/K+ ATPase
Each entry below carries its recorded pIC50.
// pIC50 here means minus log10 of the molar concentration (mol/L)

* C[C@@H]1O[C@@H](O[C@H]2C[C@@H](O)[C@]3(CO)[C@H]4[C@H](O)C[C@]5(C)[C@@H](C6=CC(=O)OC6)CC[C@]5(O)[C@@H]4CC[C@]3(O)C2)[C@H](O)[C@H](O)[C@H]1O [OUABAIN] | 5.40
* CCCCCCCCCC/C=C/C[C@H](OS(=O)(=O)O)[C@H](O)[C@H](N)CO | 4.68
* CC(C)CCCCCCCC/C=C/C[C@H](OS(=O)(=O)O)[C@H](O)[C@H](N)CO | 4.68
* CCCCCC[C@H]1C[C@H]1CCCCCCCCCC(=O)OC[C@@H](O)COP(=O)([O-])OCC(O)CO.[Na+] (relative stereo) | 5.40

Next up:
[in] In one line, give reported pIC50 of the entry CCCCCCCCCCC/C=C/C[C@H](OS(=O)(=O)O)[C@H](O)[C@H](N)CO .
[out] 4.60
